Answer each item with its documented composite z-score.
- Test system: XIP peptide (Xip251-270) binding
- assay_protocol: small-molecule binders of XIP peptide, primary screen, biochemical, small-molecule microarray, fluorescence 635/667 nm, 0.1 µg/mL protein (AID 1182)
- run_conditions: fluorescent protein binding, 635 nm, higher = more signal, called active from +8 up or from −8 down
Calls of active or inactive are those of the source.

I need composite z-score for every entry listed below, if you could help.
1. O=C1C[C@@H](O)[C@@H](O)[C@@H]2[C@@H]3C(=O)N(Cc4ccc5c(c4)OCO5)C(=O)[C@@H]3CC[C@@H]12
2. CCCCC(=C=CC[C@H](O)c1ccccc1OCCO)C[C@H](O)COCc1ccccc1
3. CO[C@@H]1COC(=O)[C@H](C)NC(=O)[C@@H](C)COC(=O)CCC[C@H]1C
4. COc1ccc(O[C@H]2C=C[C@@H](c3ccccc3)O[C@@H]2CON=C[C@@H](C)[C@H](OCc2ccccc2)C(C)C)cc1
5. Cn1cccc1C(O)C1C=CC2C(=O)NC(=O)C2N1Nc1ccccn1 (stereo not drawn)
6. CCOC(=O)[C@H](CC(C)C)NC(=O)CCC1CC(OC(=O)NCc2cccc3ccccc23)CC2(CCCC(COC(=O)NCCN3CCOCC3)O2)O1 (stereo partly drawn)
7. C=C(/C(=C/C[C@@H](OC(=O)c1ccncc1)c1ccc(OCCO)cc1)c1cnc2ccccc2c1)C(C)C
8. [N-]=[N+]=Nc1ccccc1C[C@@]1(C(N)=O)N=C(c2ccc(OCCCO)cc2)O[C@@H]1c1ccccc1

Result:
1: 0.0648 (inactive); 2: 1.03 (inactive); 3: 0.144 (inactive); 4: 0.0702 (inactive); 5: -0.262 (inactive); 6: 0.0634 (inactive); 7: -0.214 (inactive); 8: 0.353 (inactive)

----------
- assay_protocol: A549 cell viability effects, profiling panel, calcein-AM fluorescence, 48 h, basal (AID 1162)
- run_conditions: higher = more signal
Think of 0.2 as a floor: if z-score stands on it or above, it is T; beneath it, F.

Worked set:
CN(C)CCCNC(=O)[C@@H]1c2ccccc2C(=O)N(Cc2ccccc2)[C@H]1c1ccc(CO)cc1    T
CCOC(=O)[C@H](Cc1ccccc1)NC(=O)CCC1CC(OC(=O)NCc2ccc3c(c2)OCO3)CC2(CCCC(COC(=O)NCC(c3ccccc3)c3ccccc3)O2)O1 (some centres undefined)    T
O=C(NN=C1C[C@@H](O)[C@@H](O)[C@@H]2[C@@H]3C(=O)N(c4ccc(F)cc4F)C(=O)[C@@H]3CC[C@@H]12)OCc1ccccc1    F
COC(=O)[C@H](C)NC(=O)[C@@H](C)CO    F
COc1ccc([Si](C)(C)[C@@H]2[C@@H](CCO)O[C@]3(C(=O)N(Cc4ccc(NC(C)=O)cc4)c4ccccc43)[C@H]2C)cc1    F
O=C1c2ccccc2[C@@]2(Cc3ccccc3N(C3CC3)C2=O)[C@H](c2ccc(CO)cc2)N1Cc1ccccc1C(F)(F)F    T
CCOC(=O)C[C@H]1[C@H](OC(=O)c2ccc(C(=O)c3ccccc3)cc2)[C@@H](NC(=O)c2ccc(-c3ccccc3)cc2)c2cc(OCCCO)ccc2N1C(=O)c1ccc2ccccc2n1    T
CC(C)CON=C1C[C@@H](O)[C@@H](O)[C@@H]2[C@@H]3C(=O)N(C[C@@H]4CCCO4)C(=O)[C@@H]3CC[C@H]12    F

Here is the next item to consider.
Task: Is z-score for O=C1[C@H]2[C@H]3[C@H](O)[C@H](O)CC(=NO[C@@H]4O[C@H](CO)[C@@H](O)[C@H](O)[C@H]4O)[C@H]3CC[C@H]2C(=O)N1C1CCCCC1 at or above 0.2?
Result: F
